src = patent US20140179896A1

# targetOrTestSystem: T1, human vascular endothelial growth factor receptor-2 Fc chimera (KDR-Fc) (human, UniProt P35968 20-764)
# T1 construct: range 1-764; also called human VEGFR-2; VEGF-R2-Fc; not shown: human IgG1 Fc
# T1 sequence (P35968 20-764 limits assumed, change not shown, form in doubt): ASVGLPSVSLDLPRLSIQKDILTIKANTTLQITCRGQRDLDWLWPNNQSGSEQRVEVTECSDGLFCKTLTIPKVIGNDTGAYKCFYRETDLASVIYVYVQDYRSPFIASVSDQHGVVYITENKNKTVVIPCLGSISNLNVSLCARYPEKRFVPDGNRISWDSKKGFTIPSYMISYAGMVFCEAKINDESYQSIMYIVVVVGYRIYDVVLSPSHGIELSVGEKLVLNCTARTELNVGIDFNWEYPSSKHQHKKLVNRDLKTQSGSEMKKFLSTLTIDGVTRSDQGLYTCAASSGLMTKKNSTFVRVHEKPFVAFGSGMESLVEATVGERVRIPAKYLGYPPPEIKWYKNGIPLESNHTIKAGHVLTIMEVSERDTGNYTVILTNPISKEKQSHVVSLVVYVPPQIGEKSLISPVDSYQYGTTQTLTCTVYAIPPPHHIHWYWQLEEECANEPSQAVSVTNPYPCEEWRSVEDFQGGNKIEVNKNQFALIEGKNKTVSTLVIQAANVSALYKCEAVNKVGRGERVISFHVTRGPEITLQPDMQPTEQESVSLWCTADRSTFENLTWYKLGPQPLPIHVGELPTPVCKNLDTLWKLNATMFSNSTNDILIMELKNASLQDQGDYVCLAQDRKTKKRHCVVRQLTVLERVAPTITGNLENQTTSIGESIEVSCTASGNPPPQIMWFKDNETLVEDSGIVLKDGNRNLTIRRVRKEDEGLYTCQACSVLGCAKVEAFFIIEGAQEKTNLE
# measurementProtocol: radioactive equilibrium binding, 1 nM KDR-Fc
recordedEndpoint: Binding to 1 nM KDR, % (%)

- binder: "2′Del C11 PR4 (designed binder, Del 1-8) EVVAATPTSLLISWRHPHFPTRYYRITYGETGGNSPVQEFTVPLQPPTATISGLKPGVDYTITGYAVTAGLNEHELLIPISINYRT"
  Binding to 1 nM KDR, % [%]: 34
- binder: "2′Del H6 PR4 (designed binder, Del 1-8) EVVAATPTSLLISWRHPHFPTRYYRITYGETGGNSPVQEFTVPLQPPTATISGLKPGVDYTITGYAVTTGHHDHELIIPISINYRT"
  Binding to 1 nM KDR, % [%]: 28
- binder: "4′C5 PR4 (designed binder, Del 1-8) EVVAATPTSLLISWRHPHFPTRYYRITYGETGGNSPVQEFTVPLQPPTATISGLKPGVDYTITGYAVTLGLNDHELITPISINYRT"
  Binding to 1 nM KDR, % [%]: 27
